- target system: Nischarin (Rattus norvegicus)
- Sequence (Q4G017 whole entry): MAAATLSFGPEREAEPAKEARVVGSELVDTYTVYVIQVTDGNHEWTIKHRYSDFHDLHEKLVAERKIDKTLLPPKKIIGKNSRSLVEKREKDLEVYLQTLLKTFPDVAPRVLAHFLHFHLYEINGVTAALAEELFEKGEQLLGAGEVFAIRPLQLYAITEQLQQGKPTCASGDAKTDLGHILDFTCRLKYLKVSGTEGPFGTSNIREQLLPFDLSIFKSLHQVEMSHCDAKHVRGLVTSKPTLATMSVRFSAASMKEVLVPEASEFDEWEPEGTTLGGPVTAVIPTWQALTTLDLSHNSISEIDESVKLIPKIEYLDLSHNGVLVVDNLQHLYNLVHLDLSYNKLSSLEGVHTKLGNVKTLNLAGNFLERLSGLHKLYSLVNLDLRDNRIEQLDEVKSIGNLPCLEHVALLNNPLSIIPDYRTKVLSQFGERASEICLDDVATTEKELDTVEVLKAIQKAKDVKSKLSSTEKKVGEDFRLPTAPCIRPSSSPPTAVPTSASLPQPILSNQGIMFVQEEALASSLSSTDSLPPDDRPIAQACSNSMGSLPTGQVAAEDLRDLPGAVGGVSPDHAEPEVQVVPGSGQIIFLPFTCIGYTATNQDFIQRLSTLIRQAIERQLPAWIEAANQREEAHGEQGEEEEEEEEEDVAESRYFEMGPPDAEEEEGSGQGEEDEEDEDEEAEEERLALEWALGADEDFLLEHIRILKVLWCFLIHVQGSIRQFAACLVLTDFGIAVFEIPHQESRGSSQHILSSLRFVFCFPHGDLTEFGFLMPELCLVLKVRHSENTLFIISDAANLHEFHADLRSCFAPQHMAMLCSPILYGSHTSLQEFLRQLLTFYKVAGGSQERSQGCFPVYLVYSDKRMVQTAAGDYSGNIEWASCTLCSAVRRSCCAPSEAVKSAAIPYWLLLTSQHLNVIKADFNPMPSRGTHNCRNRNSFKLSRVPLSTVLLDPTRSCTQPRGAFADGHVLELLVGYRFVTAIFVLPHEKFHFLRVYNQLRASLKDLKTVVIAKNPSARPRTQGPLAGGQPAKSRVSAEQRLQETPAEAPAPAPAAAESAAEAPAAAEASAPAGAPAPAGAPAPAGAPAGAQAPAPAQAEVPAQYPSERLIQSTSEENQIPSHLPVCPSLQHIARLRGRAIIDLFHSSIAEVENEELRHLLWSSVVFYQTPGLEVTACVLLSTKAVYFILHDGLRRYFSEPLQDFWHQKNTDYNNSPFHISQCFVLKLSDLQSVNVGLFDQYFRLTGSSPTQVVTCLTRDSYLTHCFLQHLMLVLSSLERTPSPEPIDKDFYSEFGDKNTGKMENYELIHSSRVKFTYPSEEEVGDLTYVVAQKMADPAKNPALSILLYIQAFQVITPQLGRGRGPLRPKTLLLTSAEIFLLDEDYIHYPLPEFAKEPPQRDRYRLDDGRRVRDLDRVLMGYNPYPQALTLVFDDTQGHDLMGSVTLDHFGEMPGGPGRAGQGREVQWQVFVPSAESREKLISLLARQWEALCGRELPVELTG
pKi: −log10 of the molar value.
readout type: pKi

>>> df
                     input_smiles                  target_system  measured_value
 0   Br.Cc1cccc2ccn(CC3=NCCN3)c12  Nischarin (Rattus norvegicus)            6.00
 1    Cl.c1ccc2c(c1)ccn2CC1=NCCN1  Nischarin (Rattus norvegicus)            4.09
 2  Brc1ccc2c(ccn2CC2=NCCN2)c1.Cl  Nischarin (Rattus norvegicus)            4.98
 3   Cl.Fc1ccc2c(ccn2CC2=NCCN2)c1  Nischarin (Rattus norvegicus)            7.49
 4   Cl.Fc1cccc2ccn(CC3=NCCN3)c12  Nischarin (Rattus norvegicus)            5.02
 5  Brc1cccc2ccn(CC3=NCCN3)c12.Cl  Nischarin (Rattus norvegicus)            7.10
 6   Cl.Fc1ccc2ccn(CC3=NCCN3)c2c1  Nischarin (Rattus norvegicus)            6.10
 7  Cl.Clc1cccc2ccn(CC3=NCCN3)c12  Nischarin (Rattus norvegicus)            4.99
 8  CCc1cccc2ccn(CC3=NCCN3)c12.Cl  Nischarin (Rattus norvegicus)            4.34
 9  Br.COc1cccc2ccn(CC3=NCCN3)c12  Nischarin (Rattus norvegicus)            3.23
10     Cl.Fc1cccc2c1ccn2CC1=NCCN1  Nischarin (Rattus norvegicus)            4.84
11    Brc1cccc2c1ccn2CC1=NCCN1.Cl  Nischarin (Rattus norvegicus)            6.33
12  Cl.Clc1ccc2ccn(CC3=NCCN3)c2c1  Nischarin (Rattus norvegicus)            5.25
